Data credit: ChEMBL document CHEMBL1201862

system: SK-MEL-2; test: NCI tumour cell line growth inhibition, 48 h
Active and inactive are the calls of the source. Cut-off read from the data, not from the text of the source: active = GI50 up to about 1.1 µM and inactive = higher.
# GI50 per record follows

# molecule, GI50
measured = [
    ("C=C(C)CCC1CCCCC(CN(C)C)C1=O (centres undefined)", "> 100 µM (inactive)"),
]

Q: // returns reported GI50 for input O=[N+]([O-])c1cc(/C=N/NS(=O)(=O)c2ccc(F)cc2)c(O)c([N+](=O)[O-])c1
Ans: 45.2 µM (inactive)

Q: Entry COC(=O)c1sc(=S)sc1SCc1ccc(CSc2sc(=S)sc2C(=O)OC)cc1 please
Ans: > 100 µM (inactive)

Q: Entry Cn1c(N/N=C/c2ccccc2)nc(-c2ccc3c(c2)OCO3)c(C#N)c1=O please
Ans: > 100 µM (inactive)

Q: Entry c1ccc(-c2cn3nc(N4CCOCC4)sc3n2)cc1 please
Ans: > 100 µM (inactive)

Q: Entry Nc1nc(Nc2ccc(Cl)cc2)sc1C(=O)c1cccs1 please
Ans: 98.9 µM (inactive)
